Molecular target: 5-hydroxytryptamine receptor 2C (Rattus norvegicus, UniProt P08909)
Sequence (P08909 whole entry): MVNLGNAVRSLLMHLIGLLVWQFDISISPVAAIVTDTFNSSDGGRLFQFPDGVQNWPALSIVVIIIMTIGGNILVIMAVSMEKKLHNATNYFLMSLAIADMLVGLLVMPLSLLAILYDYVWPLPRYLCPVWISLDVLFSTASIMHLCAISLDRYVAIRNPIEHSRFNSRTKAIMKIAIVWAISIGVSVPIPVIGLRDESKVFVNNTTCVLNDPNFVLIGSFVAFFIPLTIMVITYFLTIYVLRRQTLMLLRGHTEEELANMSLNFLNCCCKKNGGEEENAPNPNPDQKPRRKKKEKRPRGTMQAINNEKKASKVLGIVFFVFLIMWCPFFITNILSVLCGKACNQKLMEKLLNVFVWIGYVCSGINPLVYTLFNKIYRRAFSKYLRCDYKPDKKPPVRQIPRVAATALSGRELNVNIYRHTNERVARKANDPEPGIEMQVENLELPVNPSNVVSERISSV
Experiment: Displacement of [3H]mesulergine from serotonin 5-HT2C receptor in Sprague-Dawley rat brain cortex homogenates incubated for 15 mins by liquid scintillation spectrometry
observable: Ki

Reference set, count: 5
* N#Cc1ccccc1N1CCN(CCNC(=O)c2ccccn2)CC1 | > 10 µM
* O=C(NCCCN1CCN(c2cccc(Cl)c2)CC1)c1ccccn1 | 0.101 µM
* O=C(NCCN1CCN(c2ccccc2)CC1)c1ccccn1 | > 10 µM
* O=C(NCCCN1CCN(C(c2ccccc2)c2ccc(Cl)cc2)CC1)c1ccccn1 (stereo unspecified) | > 10 µM
* O=C(NCCCN1CCN(c2ncccn2)CC1)c1ccccn1 | > 10 µM

Identify the reported Ki for the following entry. O=C(NCCN1CCN(c2ccccc2Cl)CC1)c1ccccn1 0.268 µM
